- TEST PROTOCOL: Potency index, ratio of chepraecoxinA IC50 to test compound IC50 for inhibition of alpha-glucosidase (unknown origin)
- CONDITION CONTEXT: Homo sapiens
MEASURED PROPERTY: Ratio IC50

[[record]]
molecular_string = "CC(=O)O[C@H]1CC[C@@](C)(C(=O)O)[C@H]2CC[C@@]34C[C@H](CC[C@H]3[C@]12C)[C@@H](C)C4"
endpoint_value = 2

[[record]]
molecular_string = "C[C@H]1C[C@@]23CC[C@H]4[C@@](C)([C@@H](OC(=O)C5CCCCC5)CC[C@@]4(C)C(=O)O)[C@@H]2CC[C@H]1C3"
endpoint_value = 17

[[record]]
molecular_string = "CCCCC/C=C/C(=O)O[C@H]1CC[C@@](C)(C(=O)O)[C@H]2CC[C@@]34C[C@H](CC[C@H]3[C@]12C)[C@@H](C)C4"
endpoint_value = 17

[[record]]
molecular_string = "C[C@H]1C[C@@]23CC[C@H]4[C@@](C)([C@@H](OC(=O)/C=C/c5ccccc5)CC[C@@]4(C)C(=O)O)[C@@H]2CC[C@H]1C3"
endpoint_value = 17


---

In this section, each of the molecules is paired with its reported inhibition.
- TEST PROTOCOL: Inhibition of alpha-glucosidase (unknown origin) at 500 uM relative to control
- CONDITION CONTEXT: Homo sapiens
MEASURED PROPERTY: inhibition (%)

[[record]]
molecule = "C=C1C[C@@]23CC[C@H]4[C@@](C)([C@@H](OC(C)=O)CC[C@@]4(C)C(=O)O)[C@@H]2CC[C@H]1C3"
unit_abbreviation = "%"
endpoint_value = 95

[[record]]
molecule = "C=C1C[C@@]23CC[C@H]4[C@](C)([C@@H]2CC[C@H]1C3)[C@@H](O)CC[C@@]4(C)C(=O)O"
unit_abbreviation = "%"
endpoint_value = 52

[[record]]
molecule = "CC(=O)O[C@H]1CC[C@@](C)(C(=O)O)[C@H]2CC[C@]34CC(=O)[C@@H](CC[C@H]3[C@]12C)C4"
unit_abbreviation = "%"
endpoint_value = 78.8

[[record]]
molecule = "C[C@H]1C[C@@]23CC[C@H]4[C@@](C)([C@@H](OC(=O)CCC(=O)O)CC[C@@]4(C)C(=O)O)[C@@H]2CC[C@H]1C3"
unit_abbreviation = "%"
endpoint_value = 17.8

[[record]]
molecule = "C=C1C[C@@]23CC[C@H]4[C@@](C)(C(=O)CC[C@@]4(C)C(=O)O)[C@@H]2CC[C@H]1C3"
unit_abbreviation = "%"
endpoint_value = 19.4

[[record]]
molecule = "CCCCCCCC(=O)O[C@H]1CC[C@@](C)(C(=O)O)[C@H]2CC[C@@]34C[C@H](CC[C@H]3[C@]12C)[C@@H](C)C4"
unit_abbreviation = "%"
endpoint_value = 95.5

[[record]]
molecule = "C[C@H]1O[C@H](O[C@H]2[C@H](O)[C@@H](O)[C@@H](O[C@H]3[C@H](O)[C@@H](O)C(O)O[C@@H]3CO)O[C@@H]2CO)[C@H](O)[C@@H](O)[C@@H]1N[C@H]1C=C(CO)[C@@H](O)[C@H](O)[C@H]1O (some centres not stated) [ACARBOSE]"
unit_abbreviation = "%"
endpoint_value = 79.8


---

- TEST PROTOCOL: Inhibition of alpha-glucosidase (unknown origin) at 500 uM relative to control
- CONDITION CONTEXT: Homo sapiens
MEASURED PROPERTY: inhibition

[[record]]
molecular_string = "C[C@H]1C[C@@]23CC[C@H]4[C@](C)([C@@H]2CC[C@H]1C3)[C@@H](O)CC[C@@]4(C)C(=O)O"
endpoint_value = "17.3%"

[[record]]
molecular_string = "C=C1C[C@@]23CC[C@H]4[C@@](C)([C@@H](OC(C)=O)CC[C@@]4(C)C(=O)OC)[C@@H]2CC[C@H]1C3"
endpoint_value = "45.4%"

[[record]]
molecular_string = "COC(=O)[C@]1(C)CC[C@H](OC(C)=O)[C@@]2(C)[C@@H]3CC[C@H]4C[C@@]3(CC[C@@H]21)C[C@@H]4C"
endpoint_value = "11.4%"

[[record]]
molecular_string = "CCCCC/C=C/C(=O)O[C@H]1CC[C@@](C)(C(=O)O)[C@H]2CC[C@@]34C[C@H](CC[C@H]3[C@]12C)[C@@H](C)C4"
endpoint_value = "91.8%"

[[record]]
molecular_string = "C=C1[C@H]2CC[C@@H]3[C@@](CC[C@H]4[C@@]3(C)[C@@H](OC(C)=O)CC[C@@]4(C)C(=O)O)(C2)[C@H]1O"
endpoint_value = "22.1%"

[[record]]
molecular_string = "C[C@H]1C[C@@]23CC[C@H]4[C@@](C)(C(=O)CC[C@@]4(C)C(=O)O)[C@@H]2CC[C@H]1C3"
endpoint_value = "13.2%"

[[record]]
molecular_string = "CC(=O)O[C@H]1CC[C@@](C)(C(=O)O)[C@H]2CC[C@@]34C[C@H](CC[C@H]3[C@]12C)[C@@](O)(CO)C4"
endpoint_value = "7.5%"

[[record]]
molecular_string = "C=C1C(=O)[C@@]23CC[C@H]4[C@@](C)([C@@H](OC(C)=O)CC[C@@]4(C)C(=O)O)[C@@H]2CC[C@H]1C3"
endpoint_value = "18.6%"

[[record]]
molecular_string = "C[C@H]1C[C@@]23CC[C@H]4[C@@](C)([C@@H](OC(=O)c5cccnc5)CC[C@@]4(C)C(=O)O)[C@@H]2CC[C@H]1C3"
endpoint_value = "93%"

[[record]]
molecular_string = "CC(=O)O[C@H]1CC[C@@](C)(C(=O)O)[C@H]2CC[C@@]34C[C@H](CC[C@H]3[C@]12C)[C@@]1(CO1)C4"
endpoint_value = "9.6%"

[[record]]
molecular_string = "C=C1C[C@@]23CC[C@H]4[C@@](C)(/C(=N/O)CC[C@@]4(C)C(=O)O)[C@@H]2CC[C@H]1C3"
endpoint_value = "77.2%"

[[record]]
molecular_string = "CCCCCCCCCCCCCCCCCC(=O)O[C@H]1CC[C@@](C)(C(=O)O)[C@H]2CC[C@@]34C[C@H](CC[C@H]3[C@]12C)[C@@H](C)C4"
endpoint_value = "94.2%"

[[record]]
molecular_string = "CCCC(=O)O[C@H]1CC[C@@](C)(C(=O)O)[C@H]2CC[C@@]34C[C@H](CC[C@H]3[C@]12C)[C@@H](C)C4"
endpoint_value = "98%"

[[record]]
molecular_string = "CC(=O)O[C@H]1CC[C@@](C)(C(=O)O)[C@H]2CC[C@@]34C[C@H](CC[C@H]3[C@]12C)[C@@H](C)C4"
endpoint_value = "98.4%"

